- TEST_DETAILS: Residual rate in blood (amount of dye in blood) in cancer-bearing mouse
- Format: in vivo
- ASSAY_SETUP: mouse, whole blood; 24 hours after administration, tail vein blood
QUANTITY_KIND: tissue uptake at 24 h

// recorded tissue uptake at 24 h for CC1(C)C(/C=C/C=C/C=C/C=C2/N(CCCCS(=O)(=O)[O-])c3ccc4ccccc4c3C2(C)C)=[N+](CCCCS(=O)(=O)[O-])c2ccc3ccccc3c21.[Na+] [ICG, indocyanine green, reference compound] : 0.1 %ID/g

---

- TEST_DETAILS: Tumor accumulation property (amount of dye in tumor) in cancer-bearing mouse
- Format: in vivo
- ASSAY_SETUP: mouse; 24 hours after administration; tumor accumulation / residual rate in blood; read-out: Tumor/blood ratio
QUANTITY_KIND: Kp at 24 h

// recorded Kp at 24 h for CC1(C)C(/C=C/C=C/C=C/C=C2/N(CCCCS(=O)(=O)[O-])c3ccc4ccccc4c3C2(C)C)=[N+](CCCCS(=O)(=O)[O-])c2ccc3ccccc3c21.[Na+] [ICG, indocyanine green, reference compound] : 0.1

Attribution: patent US10646596B2
